B1: EHMT1 (parent)
chain: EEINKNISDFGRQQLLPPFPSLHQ

Variants of: B1
experiment-summary: protein stability index of a GFP-peptide fusion (GPS, HEK-293T) (PSI 1-6); higher = more stable;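 also: lentivirally expressed fusions sorted by FACS into six bins by GFP to DsRed ratio, PSI derived from sequencing read proportions per bin multiplied by bin number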
setup-conditions: c terminus: a fixed tail appended
value-kind: protein stability index
// print number alone

- variant-identifier: "L15K"
  protein stability index: 3.07
- variant-identifier: "I7G"
  protein stability index: 3.3
- variant-identifier: "S8I"
  protein stability index: 2.82
- variant-identifier: "P20W"
  protein stability index: 1.82
- variant-identifier: "H23K"
  protein stability index: 3.61
- variant-identifier: "P18H"
  protein stability index: 3.15

Query: Recorded protein stability index for `L15E` , please?
Reply: 3.65

Query: Recorded protein stability index for `Q13F` , please?
Reply: 2.5

Query: Recorded protein stability index for `E1T` , please?
Reply: 2.9
